Entry source: PubChem BioAssay

Quick reference for inhibition among some molecules
assay: human hepatoma cell viability loss – ATP luminescence, cytotoxicity control for P. falciparum antimalarial project, primary screen (AID 2303); settings: HepG2 viability, 24-48 h, at 10 µM, hits give high values;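 note: 0% = DMSO wells and 100% = digitonin-killed cells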

molecule	inhibition / %
CCCCCN1CCN(Cc2cccc(NC(=O)c3ccc(Cl)c(Cl)c3)c2)CC1	24
N=C(N)c1ccc(NC(=O)Cc2nc3ccc(C(=N)N)cc3[nH]2)cc1	4
CN1CCN(Cc2cccc(-c3ccc4c(Nc5ccc(Oc6cccnc6)cc5)ccnc4c3)c2)CC1	15
Cc1[nH]cnc1CSCCNC(=NCCCCCCCCN=C(NC#N)NCCSCc1nc[nH]c1C)NC#N	1
Cc1cccc2[nH]c(-c3cccc(-c4cccc(CN5CCN(c6ccncc6)CC5)c4)c3)nc12	47
N#Cc1cc(C(=O)c2cc(Br)ccc2O)cn(C2CCCCC2)c1=O	3
Cc1cc(Cl)c(Cl)cc1NC(=O)Nc1cccc(C(F)(F)F)c1	1
CC(=O)Oc1cc(C(=O)Nc2ccc(Cl)cc2)cc2ccccc12	16
COc1ccc2nccc(N3CCCN(CCNCc4ccc5c(n4)NC(=O)CS5)CC3)c2n1	8
CCOC(=O)c1c[nH]c2c(ccc3ccccc32)c1=O	-5
CCOc1cc(C(=O)NC2CCN(Cc3ccccc3)CC2)ccc1-c1nc2ccc(Cl)cc2[nH]1	10
Cc1cccc2sc(N(CCCn3ccnc3)C(=O)C=Cc3cccs3)nc12	-6
Nc1nc2c(c(=O)[nH]1)CN(S(=O)(=O)c1ccc(C(=O)N[C@@H](CCC(=O)O)C(=O)O)cc1)CC2	49
COc1ccc2ccc(F)c(CCN3CCC(NCc4cc5c(cn4)OCCO5)CC3)c2n1	15
COc1cc2nc(N(C)CC3COc4ccccc4O3)nc(N)c2cc1OC (stereo not given)	11
Cc1onc(-c2c(F)cccc2Cl)c1C(=O)Nc1ccccc1I	-8
COc1cc(NC(=O)c2cc3c(C)nn(-c4cccc(C(F)(F)F)c4)c3s2)cc(OC)c1OC	0
CC(C)NCc1ccc(-c2ccc(CN3CCCC(c4ccccc4)C3)cc2)c(C(=O)NC2Cc3ccccc3C2)c1 (stereo not given)	41
COc1ccc2nccc([C@@H](O)CN3CCC(NCCOc4ccccc4C#N)CC3)c2c1	10
CCCCCCc1cc(OC)c(OC)cc1C(C)Nc1ccnc2cc(Cl)ccc12 (stereo not given)	6
